Task for the reader: assign each of the following molecules its reported combination Emax.
# Test system: COLO-679 (Melanoma)
# METHOD: combination Emax (second highest fraction inhibited in the dose matrix, 72 h); higher = more inhibition; extreme values may be limits of the assay
Write the number on its own, no unit after it.

Report combination Emax for Cc1c2c(nn1C)CSCc1cc(n(C)n1)CSc1cc(c3ccccc3c1)OCCCc1c(C(=O)O)n(C)c3c-2c(Cl)ccc13 [AZD5991] + C[C@@H](Nc1cc(F)cc(F)c1)c1cc(C(=O)N(C)C)cc2c(=O)cc(N3CCOCC3)oc12 [AZD8186] (first compound max 1 µM, 7x7, partner max 3 µM) 0.332

Report combination Emax for Cc1cc2ncnn2cc1Nc1ncc2c(n1)n(C1CCOCC1)c(=O)n2C [AZD7648] + CCN(CCO)CCCOc1ccc2c(Nc3cc(CC(=O)Nc4cccc(F)c4)[nH]n3)ncnc2c1 [AZD2811] (first compound max 10 µM, 7x7, partner max 1 µM) 0.203

Report combination Emax for N#Cc1cnc(Nc2cc(NC[C@H]3CNCCO3)c(C(F)(F)F)cn2)cn1 [SRA737] + Nc1ccn([C@@H]2O[C@H](CO)[C@@H](O)C2(F)F)c(=O)n1 [Gemcitabine] (first compound max 10 µM, 7x7, partner max 0.3 µM) 0.828

Report combination Emax for CN(CCO)CC[C@H](CSc1ccccc1)Nc1ccc(S(=O)(=O)NC(=O)c2ccc(N3CCC([C@@H](O)c4ccccc4-c4ccc(Cl)cc4)CC3)cc2)cc1S(=O)(=O)C(F)(F)F [AZD4320] + CN(C)CCCOc1ccc(-c2ccc3ncc4c(c3c2)n(C2CCOCC2)c(=O)n4C)cn1 [AZD0156] (first compound max 1 µM, 7x7, partner max 1 µM) 0.162

Report combination Emax for CN(CCO)CC[C@H](CSc1ccccc1)Nc1ccc(S(=O)(=O)NC(=O)c2ccc(N3CCC([C@@H](O)c4ccccc4-c4ccc(Cl)cc4)CC3)cc2)cc1S(=O)(=O)C(F)(F)F [AZD4320] + Cn1cnc2c(F)c(Nc3ccc(Br)cc3Cl)c(C(=O)NOCCO)cc21 [Selumetinib] (first compound max 1 µM, 7x7, partner max 3 µM) 0.834

Report combination Emax for CN(CCO)CC[C@H](CSc1ccccc1)Nc1ccc(S(=O)(=O)NC(=O)c2ccc(N3CCC([C@@H](O)c4ccccc4-c4ccc(Cl)cc4)CC3)cc2)cc1S(=O)(=O)C(F)(F)F [AZD4320] + Cc1cc2ncnn2cc1Nc1ncc2c(n1)n(C1CCOCC1)c(=O)n2C [AZD7648] (first compound max 1 µM, 7x7, partner max 10 µM) 0.142

Report combination Emax for O=C(c1cc(Cc2n[nH]c(=O)c3ccccc23)ccc1F)N1CCN(C(=O)C2CC2)CC1 [Olaparib] + COc1nnc2ccc(N3CCC(c4ccc(OCCN5CCN(C)C(=O)[C@H]5C)cc4)CC3)nn12 [AZD5153] (first compound max 10 µM, 7x7, partner max 1 µM) 0.321
